Target: Amyloid-beta precursor protein (Homo sapiens, UniProt P05067)
Sequence (P05067 whole entry, the tested form may be a part): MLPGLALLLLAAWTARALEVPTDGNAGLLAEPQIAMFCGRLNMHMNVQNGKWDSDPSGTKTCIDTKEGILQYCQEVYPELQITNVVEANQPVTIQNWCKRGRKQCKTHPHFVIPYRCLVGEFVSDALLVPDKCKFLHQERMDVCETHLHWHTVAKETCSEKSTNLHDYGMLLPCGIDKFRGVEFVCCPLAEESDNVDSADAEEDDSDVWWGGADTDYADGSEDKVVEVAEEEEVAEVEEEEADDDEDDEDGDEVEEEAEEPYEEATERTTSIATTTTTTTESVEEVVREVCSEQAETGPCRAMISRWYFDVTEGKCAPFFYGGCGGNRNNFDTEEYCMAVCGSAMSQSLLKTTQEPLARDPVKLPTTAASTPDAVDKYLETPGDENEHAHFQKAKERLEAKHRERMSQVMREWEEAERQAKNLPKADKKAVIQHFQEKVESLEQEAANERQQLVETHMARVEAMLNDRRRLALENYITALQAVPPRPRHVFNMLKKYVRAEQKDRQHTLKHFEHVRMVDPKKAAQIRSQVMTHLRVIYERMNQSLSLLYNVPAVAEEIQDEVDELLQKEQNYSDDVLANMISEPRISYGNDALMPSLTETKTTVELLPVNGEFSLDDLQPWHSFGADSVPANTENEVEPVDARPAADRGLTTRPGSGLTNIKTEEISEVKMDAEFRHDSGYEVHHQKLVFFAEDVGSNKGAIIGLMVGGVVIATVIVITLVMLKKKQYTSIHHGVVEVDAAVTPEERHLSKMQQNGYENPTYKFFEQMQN
Assay: Inhibition of HFIP-induced human recombinant amyloid beta (1 to 42 residues) aggregation expressed in Escherichia coli at 25 uM measured over 24 hrs by ThT-based fluorescence spectroscopic method relative to control
Calls of active or inactive are those of the source. The rule behind the calls is not given here.
test readout: inhibition

Use these answered entries as a reference point.
[
  {
    "smiles record": "NC(=O)Nc1nc(NCCc2ccccc2)c2ccccc2n1",
    "inhibition": "46%"
  },
  {
    "smiles record": "Oc1nc(NCc2ccccc2)c2ccccc2n1",
    "inhibition": "24%"
  },
  {
    "smiles record": "c1ccc(CCNc2ncnc3ccccc23)cc1",
    "inhibition": "32%"
  },
  {
    "smiles record": "COc1ccc(CNc2nc(NC(N)=O)nc3ccccc23)cc1OC",
    "inhibition": "40%"
  },
  {
    "smiles record": "NC(=O)Nc1nc(NCc2ccccc2)c2ccccc2n1",
    "inhibition": "48%"
  }
]

Please give inhibition, item by item, for the list that follows.
1. COc1ccc(CCNc2nc(N)nc3ccccc23)cc1OC
2. COc1ccc(CCNc2nc(NC(N)=O)nc3ccccc23)cc1OC
3. Oc1nc(NCCc2ccccc2)c2ccccc2n1
4. CCCNc1nc(NCCc2ccccc2)c2ccccc2n1
5. CCCNc1nc(NCc2ccc(OC)c(OC)c2)c2ccccc2n1
6. COc1ccc(CNc2nc(NC3CCN(Cc4ccccc4)CC3)nc3ccccc23)cc1OC
7. Clc1nc(NCCc2ccccc2)c2ccccc2n1

1: 45%; 2: 33%; 3: inactive; 4: 33%; 5: inactive; 6: 27%; 7: 36%
